Values were extracted from ChEMBL document CHEMBL2311500.

- Species on record: Homo sapiens
- Test name: Inhibition of PKA1 (unknown origin) assessed as inhibition of cAMP-induced activation at 25 uM by spectrophotometric analysis
Calls of active or inactive are those of the source. No cut-off for these calls is given here.
Would you mind answering with one of these outcomes? active, inactive

How did this test come out for Cc1cc(C)c(S(=O)(=O)n2cc(C)cc2C)c(C)c1 ?
inactive

Again, but for Cc1cc(C)c(Nc2cc(Cl)ccc2Cl)c(C)c1
inactive

Again, but for Cc1ccc(S(=O)(=O)c2c(C)cc(C)cc2C)cc1
inactive

Again, but for O=S(=O)(NCCNC/C=C/c1ccc(Br)cc1)c1cccc2cnccc12
active

----------
I'd be grateful if you could share measured IC50 for these entries.
- Subject of test: UniProt Q8WZA2
- Test name: Antagonist activity at recombinant EPAC2 (unknown origin) assessed 8-NBD-cAMP substrate fluorescence intensity by substrate competing assay
Give a bare numeral; the unit µM is implied.

Name the reported IC50 value associated with the compound Cc1cc(C)c(Nc2cc(Cl)ccc2Cl)c(C)c1
0.4

Again, but for Cc1cc(C)c(S(=O)(=O)n2ccc3cccnc32)c(C)c1
2.4

Again, but for CCc1cccn1S(=O)(=O)c1ccc(C)cc1
4

Again, but for Cc1cc(C)c(S(=O)(=O)n2ccc3cc(C(=O)O)ccc32)c(C)c1
10.8

Again, but for Nc1ccc(Nc2ccc(N)cc2S(=O)(=O)O)cc1
18

Again, but for COc1ccc(S(=O)(=O)c2c(C)cc(C)cc2C)cc1
1.9

Again, but for Cc1cc(C)c(S(=O)(=O)n2ccc3ccncc32)c(C)c1
12.6

Again, but for Cc1cc(C)c(S(=O)(=O)n2ccc3ccccc32)c(C)c1
1.2

Again, but for CCc1cccn1S(=O)(=O)c1ccc(OC)cc1
8

Again, but for CCc1cccn1S(=O)(=O)c1ccc(C)cc1C
1.3

Again, but for Cc1cc(C)c(S(=O)(=O)c2ccc(O)cc2)c(C)c1
13.5

Again, but for Cc1cc(C)c(Nc2cc(Cl)cc(Cl)c2)c(C)c1
0.9

Again, but for Cc1cc(C)c(S(=O)(=O)c2ccc(I)cc2)c(C)c1
4

----------
- Subject of test: Rap guanine nucleotide exchange factor 4 (Homo sapiens, UniProt Q8WZA2)
- Sequence (Q8WZA2 whole entry): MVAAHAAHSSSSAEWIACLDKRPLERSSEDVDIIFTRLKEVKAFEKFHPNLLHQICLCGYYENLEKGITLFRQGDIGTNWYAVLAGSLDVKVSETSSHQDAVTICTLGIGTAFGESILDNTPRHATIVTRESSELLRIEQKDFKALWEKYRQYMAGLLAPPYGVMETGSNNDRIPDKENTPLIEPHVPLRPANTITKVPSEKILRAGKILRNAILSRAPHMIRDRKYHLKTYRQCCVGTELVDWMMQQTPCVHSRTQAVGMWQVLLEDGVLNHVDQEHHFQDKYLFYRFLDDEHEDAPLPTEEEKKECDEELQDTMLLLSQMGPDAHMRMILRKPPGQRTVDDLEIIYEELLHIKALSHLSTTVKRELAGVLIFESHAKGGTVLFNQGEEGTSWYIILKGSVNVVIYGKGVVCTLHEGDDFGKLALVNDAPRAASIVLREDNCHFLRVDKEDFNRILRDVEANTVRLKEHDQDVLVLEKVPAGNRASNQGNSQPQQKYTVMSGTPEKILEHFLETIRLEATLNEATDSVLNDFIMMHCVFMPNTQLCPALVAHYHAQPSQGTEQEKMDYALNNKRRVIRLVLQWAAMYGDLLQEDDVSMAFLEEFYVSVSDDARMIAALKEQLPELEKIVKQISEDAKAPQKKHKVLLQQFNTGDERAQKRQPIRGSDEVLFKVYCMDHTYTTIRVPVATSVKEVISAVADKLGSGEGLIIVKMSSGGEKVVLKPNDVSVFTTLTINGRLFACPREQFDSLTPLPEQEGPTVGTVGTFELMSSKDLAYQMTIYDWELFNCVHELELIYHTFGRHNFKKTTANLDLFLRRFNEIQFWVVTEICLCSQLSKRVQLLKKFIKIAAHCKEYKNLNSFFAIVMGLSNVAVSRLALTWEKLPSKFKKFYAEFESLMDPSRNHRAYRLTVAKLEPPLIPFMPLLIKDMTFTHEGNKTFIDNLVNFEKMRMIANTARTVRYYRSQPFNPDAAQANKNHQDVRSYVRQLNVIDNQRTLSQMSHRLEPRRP
- Test name: Antagonist activity at recombinant EPAC2 (unknown origin) assessed 8-NBD-cAMP substrate fluorescence intensity by substrate competing assay
// classify: if (IC50 < 4 µM) yes else no

# TODO verify IC50 < 4 µM strictly for this compound: Cc1cc(C)c(S(=O)(=O)c2ccc(OC3CCNCC3)cc2)c(C)c1
no

Again, but for Cc1cc(C)c(S(=O)(=O)c2ccc(OC3CCCCC3)cc2)c(C)c1
no

Again, but for Cc1cc(C)c(Nc2nc(C)c(C)s2)c(C)c1
no

Again, but for Cc1cc(C)c(S(=O)(=O)c2cc(C)c(C)cc2C)c(C)c1
yes

Again, but for Cc1cc(C)c(S(=O)(=O)c2ccc(OC3CCN(C(=O)OC(C)(C)C)CC3)cc2)c(C)c1
no

Again, but for CCc1cccn1S(=O)(=O)c1cc(C)cc(C)c1
no

Again, but for CCc1cccn1S(=O)(=O)c1ccc(C(F)(F)F)cc1
no

Again, but for Cc1cc(C)c(S(=O)(=O)n2ccc3ncccc32)c(C)c1
yes

Again, but for Cc1cc(C)c(S(=O)(=O)n2ccc3cnccc32)c(C)c1
no

Again, but for CCc1cccn1S(=O)(=O)c1ccccc1C
no

Again, but for Cc1ccc(Nc2c(C)cc(C)cc2C)cc1
yes

Again, but for Cc1cc(C)c(S(=O)(=O)c2ccc(OCCN)cc2)c(C)c1
no
